molecular target: α1β2γ2 subtype of the GABA receptor (Rattus norvegicus, UniProt P18508+P62813+P63138); construct: expressed in transfected cells; host or cells: Xenopus laevis oocytes (cRNA injection); assay: Electrophysiology: modulation of GABA currents in Xenopus oocytes expressing recombinant GABA-A receptors; assay type: cell-based; conditions: 0.1 μM compound; α1β2γ2 in oocytes
Sequence (P62813 28-455): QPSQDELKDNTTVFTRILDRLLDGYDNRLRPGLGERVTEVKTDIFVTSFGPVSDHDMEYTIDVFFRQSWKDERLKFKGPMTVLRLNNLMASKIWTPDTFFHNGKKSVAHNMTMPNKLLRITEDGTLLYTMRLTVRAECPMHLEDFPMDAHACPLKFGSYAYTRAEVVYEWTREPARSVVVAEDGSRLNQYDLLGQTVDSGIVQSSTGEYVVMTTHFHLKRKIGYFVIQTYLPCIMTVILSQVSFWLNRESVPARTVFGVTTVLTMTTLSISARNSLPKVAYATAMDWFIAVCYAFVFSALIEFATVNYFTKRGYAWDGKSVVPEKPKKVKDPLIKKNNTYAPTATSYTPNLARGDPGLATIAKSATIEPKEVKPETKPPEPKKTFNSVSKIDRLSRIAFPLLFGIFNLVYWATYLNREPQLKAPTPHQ
Sequence (P63138 25-474 limits assumed): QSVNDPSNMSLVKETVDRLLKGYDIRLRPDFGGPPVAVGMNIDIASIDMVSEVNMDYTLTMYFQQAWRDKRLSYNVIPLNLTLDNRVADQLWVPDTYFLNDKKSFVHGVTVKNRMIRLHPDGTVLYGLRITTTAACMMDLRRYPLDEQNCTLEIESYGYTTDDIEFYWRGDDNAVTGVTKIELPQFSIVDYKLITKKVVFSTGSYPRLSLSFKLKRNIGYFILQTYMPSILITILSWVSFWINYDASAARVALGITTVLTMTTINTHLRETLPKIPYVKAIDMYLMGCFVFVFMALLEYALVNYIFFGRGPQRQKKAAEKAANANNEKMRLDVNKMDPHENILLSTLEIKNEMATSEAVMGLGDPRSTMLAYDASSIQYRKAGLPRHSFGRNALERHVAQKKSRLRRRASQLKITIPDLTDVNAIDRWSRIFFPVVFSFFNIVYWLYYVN
Sequence (P18508 39-466): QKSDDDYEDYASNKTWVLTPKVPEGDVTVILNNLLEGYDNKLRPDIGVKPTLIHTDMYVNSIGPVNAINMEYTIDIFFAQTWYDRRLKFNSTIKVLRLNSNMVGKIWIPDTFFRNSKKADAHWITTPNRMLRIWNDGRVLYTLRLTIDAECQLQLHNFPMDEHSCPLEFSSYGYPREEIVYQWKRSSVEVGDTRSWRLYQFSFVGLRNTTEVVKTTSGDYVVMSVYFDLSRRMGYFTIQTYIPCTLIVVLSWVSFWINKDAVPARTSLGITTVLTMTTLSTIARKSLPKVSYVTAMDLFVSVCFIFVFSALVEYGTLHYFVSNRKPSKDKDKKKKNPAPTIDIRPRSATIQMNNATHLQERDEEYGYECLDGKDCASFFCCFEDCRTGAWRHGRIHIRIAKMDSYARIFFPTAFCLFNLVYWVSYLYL
Measured Parameter: % stimulation of the GABA currents

Example molecules with recorded % stimulation of the GABA currents:
> print(dat)
                                   molecule  obs.value
1  O=C1C=CC(C2c3ccccc3CCN2C(=O)Oc2ccccc2)O1 (racemic) [Compound 58]         0%
2  O=C1C=CC(C2c3ccccc3CCN2C(=O)OCc2ccccc2)O1 (racemic) [Compound 50]   +26 ± 6%
3  O=C1C=CC(C2c3ccccc3CCN2C(=O)OCc2ccccc2)O1 (racemic) [Compound 51]         0%
4  COc1cc2c(cc1OC)C(C1C=CC(=O)O1)NCC2 (racemic)         0%

**Q:** Given the molecule O=C1CCC(C2c3ccccc3CCN2C(=O)OCc2ccccc2)O1 (racemic) , write its reported % stimulation of the GABA currents.
**A:** +4 ± 10%

**Q:** // Input: Cc1ccc(S(=O)(=O)N2CCc3ccccc3C2[C@H]2CCC(=O)O2)cc1 (mixture of isomers) . Output its % stimulation of the GABA currents only.
**A:** 7 ± 5%

**Q:** Fill in % stimulation of the GABA currents for record COc1cc2c(cc1OC)C(C1C=C(C)C(=O)O1)N(C(=O)OCc1ccccc1)CC2 (racemic) [Compound 46]
**A:** 0%

**Q:** Find the measured % stimulation of the GABA currents of COc1cc2c(cc1OC)C(C1CCC(=O)O1)N(C(=O)OCc1ccccc1)CC2 (racemic) and report it.
**A:** 0%

**Q:** Determine its reported % stimulation of the GABA currents: O=C1C=CC(C2c3ccccc3CCN2C(=O)c2ccccc2)O1 (racemic)
**A:** 0%

// data source = patent US6649626B1
